- experiment: log P by HPLC on reversed-phase columns (C 18), EEC directive 79/831 Annex V.A8
- Type: physicochemical
- stated.conditions: method [a]
Grouping rule (logP[a]): low value = under 2, medium value = from 2 up to 3, high value = 3 and over

Example results:
[[record]]
compound = "Cc1cc(F)c(-n2c(C)nc3cnn(C)c3c2=O)cc1[S+]([O-])CC(F)(F)F (centres unmarked)"
label_value = "low value"

[[record]]
compound = "Cc1cc(F)c(-n2cnc3cnn(C)c3c2=O)cc1[S+]([O-])CC(F)(F)F (centres unmarked)"
label_value = "low value"

[[record]]
compound = "N#Cc1ccc(-n2cnc3ccsc3c2=O)cc1[S+]([O-])CC(F)(F)F (centres unmarked)"
label_value = "low value"

[[record]]
compound = "O=c1c2ccsc2ncn1-c1ccc(C(F)(F)F)c([S+]([O-])CC(F)(F)F)c1 (centres unmarked)"
label_value = "medium value"

[[record]]
compound = "CC(C)(C)c1snc2ncn(-c3ccc(Cl)c([S+]([O-])CC(F)(F)F)c3)c(=O)c12 (centres unmarked)"
label_value = "high value"


[Q] Input N#Cc1ccc(-n2cnc3sccc3c2=O)cc1[S+]([O-])CC(F)(F)F (centres unmarked) [Compound 95] ; output its category
[A] low value

[Q] Input Cc1ccc(-n2cnc3nsc(C(C)(C)C)c3c2=O)cc1SCC(F)(F)F ; output its category
[A] high value

[Q] Input Cc1cc(F)c(-n2cnc3c(Cl)c(Cl)sc3c2=O)cc1SCC(F)(F)F ; output its category
[A] high value

[Q] Input Cc1cc(F)c(-n2cnc3ccsc3c2=O)cc1SCC(F)(F)F [Compound 109] ; output its category
[A] high value

[Q] Input Cc1cc(C)c(-n2cnc3sccc3c2=O)cc1SCC(F)(F)F ; output its category
[A] high value

[Q] Input O=c1c2ccsc2ncn1-c1ccc(C(F)(F)F)c(SCC(F)(F)F)c1 ; output its category
[A] high value

[Q] Input Cc1cc(C)c(-n2cnc3ncsc3c2=O)cc1SCC(F)(F)F ; output its category
[A] medium value

[Q] Input N#Cc1ccc(-n2cnc3sccc3c2=O)cc1SCC(F)(F)F ; output its category
[A] medium value

[Q] Input Cc1nc2c(=O)n(-c3cc(SCC(F)(F)F)c(C)cc3F)cnc2s1 ; output its category
[A] medium value

[Q] Input Cn1ncc2c(=O)n(-c3ccc(C(F)(F)F)c([S+]([O-])CC(F)(F)F)c3)cnc21 (racemic) ; output its category
[A] medium value

[Q] Input Cc1c2c(=O)n(-c3ccc(C(F)(F)F)c([S+]([O-])CC(F)(F)F)c3)cnc2nn1C (centres unmarked) ; output its category
[A] medium value

[Q] Input Cc1cc(C)c([S+]([O-])CC(F)(F)F)cc1-n1cnc2ncsc2c1=O (centres unmarked) ; output its category
[A] low value

====

- experiment: log P by HPLC on reversed-phase columns (C 18), EEC directive 79/831 Annex V.A8
- Type: physicochemical
- stated.conditions: method [b]
For each entry below, report its logP[b] value.
Give bare numbers.

These solved cases illustrate the format of a correct answer.
[[record]]
compound = "Cc1ccc(-n2cnc3nn(C)c(C)c3c2=O)cc1[S+]([O-])CC(F)(F)F (centres unmarked) [Compound 47]"
outcome_measure = "logP[b]"
measurement = 1.51

[[record]]
compound = "Cc1cc(F)c(-n2cnc3ccsc3c2=O)cc1[S+]([O-])CC(F)(F)F (centres unmarked) [Compound 112]"
outcome_measure = "logP[b]"
measurement = 1.95

[[record]]
compound = "Cc1cc(F)c(-n2cnc3scnc3c2=O)cc1SCC(F)(F)F [Compound 60]"
outcome_measure = "logP[b]"
measurement = 2.52

[[record]]
compound = "Cc1ccc(-n2cnc3nsc(C(C)(C)C)c3c2=O)cc1SCC(F)(F)F [Compound 116]"
outcome_measure = "logP[b]"
measurement = 3.96

[[record]]
compound = "Cn1ncc2c(=O)n(-c3cc([S+]([O-])CC(F)(F)F)c(Cl)cc3Cl)cnc21 (racemic) [Compound 4]"
outcome_measure = "logP[b]"
measurement = 2.09

[[record]]
compound = "O=c1c2ccsc2ncn1-c1ccc(Cl)c([S+]([O-])CC(F)(F)F)c1 (centres unmarked) [Compound 87]"
outcome_measure = "logP[b]"
measurement = 2.17


For each entry beneath this line, provide reported logP[b].
1. Cc1nn(C)c2ncn(-c3ccc(C(F)(F)F)c(SCC(F)(F)F)c3)c(=O)c12 [Compound 31]
2. Cc1cc(F)c(-n2cnc3ncsc3c2=O)cc1[S+]([O-])CC(F)(F)F (centres unmarked) [Compound 79]

[A]
1: 2.99; 2: 1.57
